Target: T1, LAG-3 (human, UniProt P18627 23-450, limits assumed)
T1 sequence (looked up): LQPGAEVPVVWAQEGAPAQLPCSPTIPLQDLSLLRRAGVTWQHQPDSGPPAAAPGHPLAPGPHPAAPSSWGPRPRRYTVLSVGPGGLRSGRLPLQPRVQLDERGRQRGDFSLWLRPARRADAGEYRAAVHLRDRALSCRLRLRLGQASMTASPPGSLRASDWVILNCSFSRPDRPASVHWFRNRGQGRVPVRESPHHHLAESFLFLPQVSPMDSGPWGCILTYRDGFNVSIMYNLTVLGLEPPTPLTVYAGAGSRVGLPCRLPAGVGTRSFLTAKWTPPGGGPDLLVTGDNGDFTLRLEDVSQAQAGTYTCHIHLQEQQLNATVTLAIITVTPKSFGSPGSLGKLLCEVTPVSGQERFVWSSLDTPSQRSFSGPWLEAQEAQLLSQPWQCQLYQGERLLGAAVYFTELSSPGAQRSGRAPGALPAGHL
Assay: cell-based or functional assay
Recorded metric: EC50 of T cell proliferation (CCK8) in mixed lymphocyte reaction (ng/mL)
Express the result in ng/mL but write the number alone.

{"Binder": "人源化抗体HA-3 (human IgG4 / human Ck) (antibody, V domains shown) VH: QVQLVQSGAEVKKPGASVKVSCKASGYNITDTYMHWVRQAPGQGLEWIGKIDPANGNTKYDPKFQGRATITADTSISTAYMELSRLRSDDTAVYYCARDTTVGLDYWGQGTLVTVSS VL: DIVITQSPAFLSVTPGEKVTITCRASSSVNYMYWYQQKPDQAPKLLIYYTSKLASGVPSRFSGSGSGTDYTFTISSLEAEDAATYYCQQWSSNPHTFGGGTKVEIKR", "Reported result": 15}

We next turn to a different binder, shown below.
Need EC50 of T cell proliferation (CCK8) in mixed lymphocyte reaction, item 人源化抗体HA-1 (human IgG4 / human Ck) (antibody, V domains shown) VH: QVQLVQSGAEVKKPGASVKVSCKASGYTFTDTYMHWVRQAPGQGLEWIGKIDPANGNTKYDPKFQGRATITADTSISTAYMELSRLRSDDTAVYYCARDTTVGLDYWGQGTLVTVSS VL: DIVITQSPAFLSVTPGEKVTITCRASSSVNYMYWYQQKPDASPKLWIYYTSKLASGVPSRFSGSGSGTDYTFTISSLEAEDAATYYCQQWSSNPHTFGGGTKVEIKR
6.88
